- System: rice
- ASSAY_COMMENT: Outdoor comparison of rice stimulating action of M3432 with lower homologues and isomers (Example 11)
- Assay type: in vivo
- EXPERIMENTAL_PARAMETERS: 6 kg./ha., 21 days after sowing
- Description: In the province of Pavia, a test was carried out with outdoor treatments in a loam soil, on rice plots having a 12 m^2 surface each. Formulations of 20% M3432 in emulsifiable oil were compared with 20% formulations in emulsifiable oil of S-benzyl-N,N-diisopropyl thiocarbamate; S-benzyl-N,N-diisobutylthiocarbamate; and S-benzyl-N,N-din.butylthiocarbamate employing quantities of 4, 6 and 20 kg./ha. For each treatment, the results were gathered on 20 plants 21 days after the sowing.
ASSAY_METRIC: Secondary roots (No.)

[
  {
    "COMPOUND": "CCC(C)N(C(=O)SCc1ccccc1)C(C)CC (stereo not shown) [M3432, S-benzyl-N,N-disec.butylthiocarbamate]",
    "ASSAY_METRIC": "Secondary roots",
    "UOM": "No.",
    "MEASURED_RESULT": 2.63
  },
  {
    "COMPOUND": "CC(C)CN(CC(C)C)C(=O)SCc1ccccc1 [S-benzyl-N,N-diisobutylthiocarbamate]",
    "ASSAY_METRIC": "Secondary roots",
    "UOM": "No.",
    "MEASURED_RESULT": 1.57
  },
  {
    "COMPOUND": "CCCCN(CCCC)C(=O)SCc1ccccc1 [S-benzyl-N,N-din.butyl-thiocarbamate, S-benzyl-N,N-din.butylthiocarbamate]",
    "ASSAY_METRIC": "Secondary roots",
    "UOM": "No.",
    "MEASURED_RESULT": 1.94
  },
  {
    "COMPOUND": "CC(C)N(C(=O)SCc1ccccc1)C(C)C [S-benzyl-N,N-diisopropylthiocarbamate, S-benzyl-N,N-diisopropyl thiocarbamate]",
    "ASSAY_METRIC": "Secondary roots",
    "UOM": "No.",
    "MEASURED_RESULT": 1.63
  }
]
